Cited source: patent EP4745156A1

Molecular target: His-tagged canine IL-31 (interleukin 31) recombinant protein (canine)
Assay: cell-based or functional assay
Measured pSTAT IC50 (µg/mL) accompanies every entry in the list below.

Binder	pSTAT IC50 (µg/mL)
B2-H3K2-canIgGB (antibody, V domains shown) VH: EVQLVESGGDLVKPGGSLRLSCVASGFTFSDAWMDWVRQAPGKGLQWVAEIRSRAESHATYYAESVKGRFTISRDDAKNTVYLQMNSLRAEDTAVYYCTPASTMITTGWFAYWGQGTLVTVSS VL: DIVMTQTPLSLSVSPGETASISCRASQNISVYLHWYRQKPGQSPQVLIKYVSQSISGVPDRFSGSGSGSDFTLRISRVEADDTGVYYCQNGHSFPYTFGQGTKLEIKR	7.2
B2-mHvKv-canIgGB (antibody, V domains shown) VH: EVKLVESGGGLVQPGGSMKLSCAASGFTFSDAWMDWVRQSPERGLEWVAEIRSRAESHATYYAESVKGRFTISRDDSKGSVYLQMNSLGTEDTGIYYCTPASTMITTGWFAYWGQGTMVTVSS VL: NIVMTQSPAILSVTPGDRVSLSCRASQNISVYLHWYQQKSHDSPRVLIKYVSQSISGIPSRFSGSGSGSDFTLRINSVEPEDVGVYYCQNGHSFPYTFGGGTKLEIKR	6.8
6465-H1K1-canIgGB (antibody, V domains shown) VH: EVQLVESGGDLVKPGGSLRLSCVASGYSFTNYYLYWVRQAPGKGLEWVGELNPRNGGTNLNAKFKTRFTISVDKAKNMAYLQMNSLRAEDTAVYYCTRGGTTVVVRDVMDFWGQGTLVTVSS VL: EIVLTQTPLSLAVTPGELATISCRASESVDSYGNSFMHWYLQKPGQTPRLLIYRASNLESGVSDRFSGSGSRTDFTLKISRVEAEDVGVYYCQQSNEDPYTFGQGTKLEIKR	7.5
7475-H3K1-canIgGB (antibody, V domains shown) VH: EVQLVESGGDLVKPGGSLRLSCVASGFTFSSYAMSWVRQAPGKGLQWVARISNGGDYIFYADTVKGRFTISRDNAKNTLYLQMNSLRAEDTAMYYCTRRGHYNTSSYWYFDVWGQGTLVTVSS VL: EIVMTQSPASLSLSQEEKVTITCKASENVGTYVSWYQQKPGQAPKLLIYGASNRYTGVPSRFSGSGSGTDFTFTISSLEPEDVAVYYCGQSYSYPPTFGAGTKVELKR	7.5
B2-H3K3-canIgGB (antibody, V domains shown) VH: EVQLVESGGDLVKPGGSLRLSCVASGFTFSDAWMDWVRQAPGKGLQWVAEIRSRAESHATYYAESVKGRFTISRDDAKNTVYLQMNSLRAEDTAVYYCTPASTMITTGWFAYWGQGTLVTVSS VL: EIVMTQTPLSLSVSPGELATISCRASQNISVYLHWYQQKPGQAPKVLIKYVSQSISGVPSRFSGSGSGSDFTLTISSVEAEDVGVYYCQNGHSFPYTFGQGTKLEIKR	7.4
7475-H3K2-canIgGB (antibody, V domains shown) VH: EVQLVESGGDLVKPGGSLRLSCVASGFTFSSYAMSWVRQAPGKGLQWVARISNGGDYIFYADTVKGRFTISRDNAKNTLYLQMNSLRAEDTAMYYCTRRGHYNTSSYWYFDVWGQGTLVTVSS VL: EIVMTQSPASLSLSQEEKVTITCKASENVGTYVSWYQQKPGQAPKLLIYGASNRYTGVPSRFSGSGSATDFTLTISSVEPEDVAVYYCGQSYSYPPTFGAGTKVELKR	7.8
7475-H2K3-canIgGB (antibody, V domains shown) VH: EVQLVESGGDLVKPGGSLRLSCVASGFTFSSYAMSWIRQAPGKGLQWVAYISNGGDYIFYADTVKGRFTISRDNAKNTLYLQMNSLRAEDTAVYYCTRRGHYNTSSYWYFDVWGQGTLVTVSS VL: EIVMTQSPASLSLSQEEKVTITCKASENVGTYVSWYQQKPGQAPKLLIYGASNRYTGVPSRFSGSGSGTDFSFTISSLEPEDVAVYYCGQSYSYPPTFGAGTKVELKR	7.2
6465-H1K3-canIgGB (antibody, V domains shown) VH: EVQLVESGGDLVKPGGSLRLSCVASGYSFTNYYLYWVRQAPGKGLEWVGELNPRNGGTNLNAKFKTRFTISVDKAKNMAYLQMNSLRAEDTAVYYCTRGGTTVVVRDVMDFWGQGTLVTVSS VL: DIVMTQTPLSLSVSPGEPASISCRASESVDSYGNSFMHWYRQKPGQSPQLLIYRASNLESGVPDRFSGSGSGTDFTLRISRVEADDAGVYYCQQSNEDPYTFGQGTKLEIKR	7.4
7475-H1K2-canIgGB (antibody, V domains shown) VH: EVQLVESGGDLVKPGGSLRLSCVASGFTFSSYAMSWVRQAPGKGLQWVAYISNGGDYIFYADTVKGRFTISRDNARNTLYLQMNSLRSEDTAVYYCTRRGHYNTSSYWYFDVWGQGTLVTVSS VL: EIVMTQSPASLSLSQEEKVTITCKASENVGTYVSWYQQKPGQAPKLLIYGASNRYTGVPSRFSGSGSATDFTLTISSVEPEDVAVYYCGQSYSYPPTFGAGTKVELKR	8.1
B2-H2K2-canIgGB (antibody, V domains shown) VH: EVQLVESGGDLVKPGGSLRLSCVASGFTFSDAWMDWVRQAPGKGLEWVAEIRSRAESHATYYAESVKGRFTISRDDAKNMVYLQMNSLRAEDTAVYYCTPASTMITTGWFAYWGQGTLVTVSS VL: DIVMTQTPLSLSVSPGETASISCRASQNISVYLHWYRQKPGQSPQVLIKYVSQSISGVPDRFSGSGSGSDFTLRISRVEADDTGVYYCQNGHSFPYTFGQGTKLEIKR	7.8
7475-H1K3-canIgGB (antibody, V domains shown) VH: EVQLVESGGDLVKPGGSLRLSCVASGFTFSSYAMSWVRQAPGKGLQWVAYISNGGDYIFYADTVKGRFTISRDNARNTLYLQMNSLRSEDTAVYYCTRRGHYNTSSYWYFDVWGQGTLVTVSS VL: EIVMTQSPASLSLSQEEKVTITCKASENVGTYVSWYQQKPGQAPKLLIYGASNRYTGVPSRFSGSGSGTDFSFTISSLEPEDVAVYYCGQSYSYPPTFGAGTKVELKR	8.2
